Target: DLG1_2, Q12959
Sequence (Q12959 314-412): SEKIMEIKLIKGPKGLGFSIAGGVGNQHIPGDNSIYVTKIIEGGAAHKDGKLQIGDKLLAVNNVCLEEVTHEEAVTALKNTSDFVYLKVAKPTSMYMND
Experiment: holdup assay
Design: key: below the threshold = too weak to quantify, mostly under pKd 3.1 to 4
Settings: plain residues with an end cap or a label only (N-terminal biotin on a linker: ttds)
Overview of reported pKd across a group of binders:
Output: the number by itself.

Input: Which pKd is listed for PSRDRKETSI [RALBP1, Q15311] ?
Output: 4.7

Input: I have this binder here, KQVVPFSSSV [GDA, Q9Y2T3] , and I need its recorded pKd.
Output: 4.38

Input: GET /values?readout=pKd&item= QRPYRRESEI [KCNJ12, Q14500]
Output: 4.61

Input: I am curious: what pKd value has been reported for KLVIKTETTV [RASSF6, Q6ZTQ3] ?
Output: 5.55

The values you see were collected from paper PMC9482650.
